B1: TPR t1 (parent)
chain: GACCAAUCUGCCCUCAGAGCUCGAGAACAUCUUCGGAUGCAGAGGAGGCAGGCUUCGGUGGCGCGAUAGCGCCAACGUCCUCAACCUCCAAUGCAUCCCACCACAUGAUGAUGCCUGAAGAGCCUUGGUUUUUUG

variants of: B1; assay: polymerase ribozyme fitness, log enrichment relative to wild type (log ratio); higher = more active; in vitro selection for triplet polymerase activity
Please mark rule met if the recorded polymerase ribozyme fitness (log ratio) is equal to or greater than -2, and rule not met if it falls below.

{"mutationKey": "U33A A46U", "answerLabel": "rule not met"}
{"mutationKey": "G71C U81C A90G", "answerLabel": "rule not met"}
{"mutationKey": "G58U A68G", "answerLabel": "rule not met"}
{"mutationKey": "C8A G63A A83C C86U", "answerLabel": "rule met"}
{"mutationKey": "A100C U112C A118G", "answerLabel": "rule met"}
{"mutationKey": "C12A G110A", "answerLabel": "rule met"}
{"mutationKey": "U87A A121G", "answerLabel": "rule met"}
{"mutationKey": "A6U G113C", "answerLabel": "rule not met"}
{"mutationKey": "C34A C56A C104U", "answerLabel": "rule not met"}
{"mutationKey": "C11G C34U C49A G61A C123U", "answerLabel": "rule not met"}
{"mutationKey": "C70U U78A G120U G128A", "answerLabel": "rule not met"}
{"mutationKey": "C20A C72A A118U", "answerLabel": "rule met"}
{"mutationKey": "C8G G48U G61U G93U U112A C124A", "answerLabel": "rule met"}
{"mutationKey": "A5C C73G A84U", "answerLabel": "rule not met"}
{"mutationKey": "U9G G42A C53G", "answerLabel": "rule not met"}
{"mutationKey": "A27C G42C G71A G120C U126A U130G", "answerLabel": "rule not met"}
{"mutationKey": "C11A C49U C73A C86U A95G U106G C123U", "answerLabel": "rule met"}
{"mutationKey": "G58C U59G A95U G122A", "answerLabel": "rule met"}
{"mutationKey": "C8U A29C U55A C56G C88A U112A U130C", "answerLabel": "rule not met"}
{"mutationKey": "A37C G39A G61A U112A U116G U133A", "answerLabel": "rule not met"}
